Tested on: RARg:RXRa (NR concentration 270 nM, RXRa partner concentration 90 nM)
test.method.notes: PBM binding z-score (relative to random genomic background probes); higher = stronger binding; sequences stand for … in GC…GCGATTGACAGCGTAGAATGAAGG
reported.endpoint: PBM binding z-score

biopolymer.sequence | experimental.value
CTATGTAGGCTAAGGGGGTCATTCAGTTTGAAAG | 4.23
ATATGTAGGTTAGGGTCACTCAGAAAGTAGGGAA | 3.98
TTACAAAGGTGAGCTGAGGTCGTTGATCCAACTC | 2.97
CCGAGTAGGTTACGAGGTGGCATTCAGTGCGAAT | 0.479
CGAACTATGTCACCAGGACAGTGAAGAGGTTGGA | 0.591
CGCACTAGGTCATTGACAGGACAGTGAATAGTAA | 4.77
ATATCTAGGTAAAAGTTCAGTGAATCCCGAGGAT | 2.11
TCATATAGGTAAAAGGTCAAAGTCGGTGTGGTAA | 6.62
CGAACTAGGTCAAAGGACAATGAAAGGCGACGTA | 4.01
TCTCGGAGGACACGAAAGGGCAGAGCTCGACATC | 1.52
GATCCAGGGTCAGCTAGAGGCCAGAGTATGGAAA | 6.7
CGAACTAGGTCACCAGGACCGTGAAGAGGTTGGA | 4.44
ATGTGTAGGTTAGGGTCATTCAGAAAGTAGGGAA | 4.4
CATCCAAGGTCAAAGGTCAGTGAAGAGATGACGG | 8.8
CTATGTAGGTTAAGGGGGTCAATCAGTTTGAAAG | 5.13
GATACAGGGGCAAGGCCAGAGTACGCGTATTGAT | 0.895
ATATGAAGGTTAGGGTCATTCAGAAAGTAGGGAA | 4.37
ACAGACAGGTGAGTGAAGGTCACTCAGCTGGACG | 3.32
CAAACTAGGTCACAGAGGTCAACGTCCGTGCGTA | 7.28
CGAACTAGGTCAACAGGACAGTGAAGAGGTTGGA | 4.36
TGAATGAGGTGAAAGATCAGGGAACGTGGCGTCG | 1.51
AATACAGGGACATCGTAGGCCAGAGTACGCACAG | 0.131
TCTCGGAGGACACGAAAGGTCAGAACTCGACATC | 4.56
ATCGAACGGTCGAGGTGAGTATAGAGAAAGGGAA | 0.56
ATCGAAAGGTCGTGAGGTGACTATACAGAAAGGC | 4.7
ATATGTAGGTTAGGGTCAATCAGAAAGTAGGGAA | 4.12

###

Test system: LXRb homodimer (NR concentration 270 nM)
test.method.notes: PBM binding z-score (relative to random genomic background probes); higher = stronger binding; sequences stand for … in GC…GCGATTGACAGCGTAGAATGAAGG

biopolymer.sequence | PBM binding z-score
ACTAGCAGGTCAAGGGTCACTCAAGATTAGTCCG | 0.671
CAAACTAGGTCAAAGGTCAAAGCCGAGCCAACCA | 2.55
TCTTGTAGATCAAAGCTTAAGAAAGCCGAAGCCT | -0.532
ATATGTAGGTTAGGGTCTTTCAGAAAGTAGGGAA | 1.11
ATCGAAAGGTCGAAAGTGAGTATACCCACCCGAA | 0.816
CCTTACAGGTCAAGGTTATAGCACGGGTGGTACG | 1.18
